- Test system: NmGT22 protein
- ASSAY EXPLANATION: Enzyme activity of purified His-tag NmGT22 protein on flavonoid substrates (HPLC)
- Assay type: biochemical, Nemophila menziesii
- CONDITION SET: NmGT22 protein solution, UDP-glucose, 1 μl of 2 mM substrate in 100 μl, 20 minutes at 30° C.
QUANTITY NAME: reaction rate (percentage of transformed substrate) (%)

Examples from the recorded data:
compound="O=c1cc(-c2ccc(O)c(O)c2)oc2cc(O)cc(O)c12 [luteolin, 3′,4′,5,7-tetrahydroxyflavone]" target_of_assay="NmGT22 protein" units=% measured=99.07
compound="O=c1cc(-c2ccc(O)c(O)c2)oc2cc(O[C@@H]3O[C@H](CO)[C@@H](O)[C@H](O)[C@H]3O)cc(O)c12 [luteolin 7-glucoside]" target_of_assay="NmGT22 protein" units=% measured=16.10
compound="O=c1cc(-c2ccc(O)cc2)oc2cc(O)cc(O)c12 [apigenin, 4′,5,7-trihydroxyflavone]" target_of_assay="NmGT22 protein" units=% measured=77.16

1. O=c1cc(-c2ccc(O[C@@H]3O[C@H](CO)[C@@H](O)[C@H](O)[C@H]3O)cc2)oc2cc(O)cc(O)c12 [apigenin 4′-glucoside]
2. O=c1cc(-c2ccc(O)cc2)oc2cc(O[C@@H]3O[C@H](CO)[C@@H](O)[C@H](O)[C@H]3O)cc(O)c12 [apigenin 7-glucoside]
Inquiry: // which entry has the larger reaction rate (percentage of transformed substrate) value, 1 or 2 ? Give the label of your selection.
Reply text: 1
(1: 100%, 2: 2.69%)
